protocol: solvent given as SMILES
condition_summary: in CCO
Labelling: emission maximum reported below 500 nm becomes fulfilled; at or above becomes not fulfilled.

* c1cc2ccc3ccc(-c4ccc(-c5nnc(-c6ccc(-c7nnc(-c8ccc(-c9ccc%10ccc%11cccc%12ccc9c%10c%11%12)s8)o7)cc6)o5)s4)c4ccc(c1)c2c34 | fulfilled
* Nc1ccc2c(c1)Cc1ccccc1-2 | fulfilled
* O=C1c2ccccc2-c2ccc(N3CCN(c4ccccc4)CC3)c3cccc1c23 | not fulfilled
* c1ccc(C2c3ccccc3-c3ccccc32)cc1 | fulfilled
* CN(C)c1ccc(/C=C/C=C2\CC/C(=C\C=C\c3ccc(N(C)C)cc3)C2=O)cc1 | not fulfilled
* CC1=[N+]2C(=C(c3ccc(-c4c5ccccc5c(-c5ccccc5)c5ccccc45)cc3)c3ccc(C)n3[B-]2(F)F)C=C1 | not fulfilled
* CCOC(=O)c1cc(C(=O)OCC)c2cc(NC(=O)C(F)(F)F)ccc2n1 | fulfilled
* CC(=O)c1ccc2ccc3cccc4ccc1c2c34 | fulfilled
* CC(C)(C)Nc1cc2sc3cc(NC(C)(C)C)c(F)cc3c(=O)c2cc1F | fulfilled
* COc1ccc2cc(-c3ccc(S(C)(=O)=O)cc3)oc(=O)c2c1 | fulfilled
* CCC1=C(C)C2=Cc3cccn3[B-](F)(F)[N+]2=C1C | not fulfilled
* F[B-]1(F)n2cccc2C(c2c3ccccc3c(-c3ccccc3)c3ccccc23)=C2C=CC=[N+]21 | not fulfilled
* C#CCN1C(=O)/C(=C/c2cc(OC(C)C)ccc2OC(C)C)N=C1C | not fulfilled
* Cc1ccc(-c2cc(-c3ccccc3)c(C#N)c(=S)[nH]2)cc1 | fulfilled
* CN(C)c1cc(-c2ccc(C#Cc3ccncc3)cc2)cc2ccccc12 | fulfilled
* CCN(CC)c1ccc2cc(C#N)/c(=N\C(=O)c3ccc(C)cc3)oc2c1 | not fulfilled
* CN(C)c1cc(-c2ccc(C#Cc3ccccc3)cc2)cc2ccccc12 | fulfilled
* O=S(=O)([O-])c1ccc(O)c2ccccc12 | fulfilled
* Ic1ccc(-c2c3ccc(=[N+]4CCCCC4)cc-3oc3cc(N4CCCCC4)ccc23)cc1 | not fulfilled
* C=CCNc1ccc2ccc3oc4cc(=[N+]5CCCC5)ccc-4nc3c2c1 | not fulfilled
* CCCCCCC(CCCCCC)n1c(=O)c2c3ccc4cccc5c6cccc7ccc(c2c1=O)c(c76)c3c45 | not fulfilled
* COc1ccc(/C=C2\OC(=O)c3ccccc32)cc1 | fulfilled
* Cc1cc(=O)oc2ccc3ccc(O)cc3c12 | fulfilled
* CC1(C)CC(/C=C/c2ccc(-n3cccn3)cc2)=CC(=C(C#N)C#N)C1 | not fulfilled
* CN(C)CCNCc1c2ccccc2cc2ccccc12 | fulfilled
* CC1(C)CC(/C=C/c2cn(-c3ccccc3)nc2-c2ccccc2)=CC(=C(C#N)C#N)C1 | not fulfilled
* COC(=O)c1nc(-c2ccco2)oc1C | fulfilled
* COc1ccc(-c2nc(C(C)=O)c(C)o2)cc1 | fulfilled
* CCc1ccc(/C=N/c2cc(C(C)C)c(O)cc2C)cc1 | fulfilled
* CN(C)/C=N\c1ccc2c3c(cccc13)C(=O)c1ccccc1-2 | not fulfilled
* COc1ccc(-c2csc(/C(C#N)=C\Nc3ccc(C#N)cc3)n2)cc1 | fulfilled
* O=C1NC(=O)c2c1c1c3ccccc3[nH]c1c1[nH]c3ccccc3c21 | not fulfilled
* CN(C)c1ccc(/C=C/c2cc[n+](CCC[n+]3ccc(/C=C/c4ccc(N(C)C)cc4)cc3)cc2)cc1 | not fulfilled
* CC1CCC(O)(c2ccc(-c3cccs3)s2)CC1 (stereo unspecified) | fulfilled
* CNc1cc2nc3cc(F)c(F)cc3nc2cc1NC | not fulfilled
* CC/[NH+]=c1\cc2oc3cc(NCCC(=O)O)c4ccccc4c3nc-2cc1C | not fulfilled
